# credit: PubChem BioAssay (NCI)

Measured GI50 by item
# System: SNB-75 CNS
# method: NCI tumour cell line growth inhibition, 48 h

smiles_str: CC(=O)[O-].CC(=O)[O-].CC(=O)[O-].CC(=O)[O-].CO.CO.CO.[Rh+2].[Rh+2].c1ccc(-c2ccccn2)nc1
assay_system: SNB-75 CNS
value_observed: > 100 µM
--
smiles_str: O=C(Nc1ccc(I)cc1F)c1cc(F)ccc1O
assay_system: SNB-75 CNS
value_observed: 0.225 µM
--
smiles_str: Nc1cc2ccncc2c2ccccc12
assay_system: SNB-75 CNS
value_observed: 16.1 µM
--
smiles_str: COc1cc2cc(Oc3ccc(NC(=O)Nc4cc(C(F)(F)F)cc(C(F)(F)F)c4)cc3)c(C)nc2cc1OCCN1CCCCC1
assay_system: SNB-75 CNS
value_observed: 1.45 µM
--
smiles_str: CN1CCN(Cc2ccc(NC(=O)c3cncc(C#Cc4cncc5[nH]ncc45)c3)cc2C(F)(F)F)CC1
assay_system: SNB-75 CNS
value_observed: 0.793 µM

Reported GI50 for SNB-75 CNS, given CCN(CC)c1ccc(/C=C2/NC(=O)NC2=O)cc1 ?
4.01 µM

Reported GI50 for SNB-75 CNS, given Fc1ccc(-c2ncn(C3CCNCC3)c2-c2ccnc(Oc3ccc(Oc4ccccc4)cc3)n2)cc1 ?
3.4 µM

Reported GI50 for SNB-75 CNS, given COc1ccc2c(c1)/C(=N/OC(C)=O)c1c-2c(Nc2ccc(/C(C)=N/OC(C)=O)cc2)nc2ccccc12 ?
25 µM

Reported GI50 for SNB-75 CNS, given N#CCCCCCn1c2ccccc2c2c3c(c4c5ccccc5[nH]c4c21)C(=O)N(O)C3=O ?
0.684 µM
